Field: pIC50. Provide a value for each of the molecules that follow.
target: recombinant human ACC2 (Homo sapiens (Human), UniProt O00763)
Sequence (O00763 27-2458): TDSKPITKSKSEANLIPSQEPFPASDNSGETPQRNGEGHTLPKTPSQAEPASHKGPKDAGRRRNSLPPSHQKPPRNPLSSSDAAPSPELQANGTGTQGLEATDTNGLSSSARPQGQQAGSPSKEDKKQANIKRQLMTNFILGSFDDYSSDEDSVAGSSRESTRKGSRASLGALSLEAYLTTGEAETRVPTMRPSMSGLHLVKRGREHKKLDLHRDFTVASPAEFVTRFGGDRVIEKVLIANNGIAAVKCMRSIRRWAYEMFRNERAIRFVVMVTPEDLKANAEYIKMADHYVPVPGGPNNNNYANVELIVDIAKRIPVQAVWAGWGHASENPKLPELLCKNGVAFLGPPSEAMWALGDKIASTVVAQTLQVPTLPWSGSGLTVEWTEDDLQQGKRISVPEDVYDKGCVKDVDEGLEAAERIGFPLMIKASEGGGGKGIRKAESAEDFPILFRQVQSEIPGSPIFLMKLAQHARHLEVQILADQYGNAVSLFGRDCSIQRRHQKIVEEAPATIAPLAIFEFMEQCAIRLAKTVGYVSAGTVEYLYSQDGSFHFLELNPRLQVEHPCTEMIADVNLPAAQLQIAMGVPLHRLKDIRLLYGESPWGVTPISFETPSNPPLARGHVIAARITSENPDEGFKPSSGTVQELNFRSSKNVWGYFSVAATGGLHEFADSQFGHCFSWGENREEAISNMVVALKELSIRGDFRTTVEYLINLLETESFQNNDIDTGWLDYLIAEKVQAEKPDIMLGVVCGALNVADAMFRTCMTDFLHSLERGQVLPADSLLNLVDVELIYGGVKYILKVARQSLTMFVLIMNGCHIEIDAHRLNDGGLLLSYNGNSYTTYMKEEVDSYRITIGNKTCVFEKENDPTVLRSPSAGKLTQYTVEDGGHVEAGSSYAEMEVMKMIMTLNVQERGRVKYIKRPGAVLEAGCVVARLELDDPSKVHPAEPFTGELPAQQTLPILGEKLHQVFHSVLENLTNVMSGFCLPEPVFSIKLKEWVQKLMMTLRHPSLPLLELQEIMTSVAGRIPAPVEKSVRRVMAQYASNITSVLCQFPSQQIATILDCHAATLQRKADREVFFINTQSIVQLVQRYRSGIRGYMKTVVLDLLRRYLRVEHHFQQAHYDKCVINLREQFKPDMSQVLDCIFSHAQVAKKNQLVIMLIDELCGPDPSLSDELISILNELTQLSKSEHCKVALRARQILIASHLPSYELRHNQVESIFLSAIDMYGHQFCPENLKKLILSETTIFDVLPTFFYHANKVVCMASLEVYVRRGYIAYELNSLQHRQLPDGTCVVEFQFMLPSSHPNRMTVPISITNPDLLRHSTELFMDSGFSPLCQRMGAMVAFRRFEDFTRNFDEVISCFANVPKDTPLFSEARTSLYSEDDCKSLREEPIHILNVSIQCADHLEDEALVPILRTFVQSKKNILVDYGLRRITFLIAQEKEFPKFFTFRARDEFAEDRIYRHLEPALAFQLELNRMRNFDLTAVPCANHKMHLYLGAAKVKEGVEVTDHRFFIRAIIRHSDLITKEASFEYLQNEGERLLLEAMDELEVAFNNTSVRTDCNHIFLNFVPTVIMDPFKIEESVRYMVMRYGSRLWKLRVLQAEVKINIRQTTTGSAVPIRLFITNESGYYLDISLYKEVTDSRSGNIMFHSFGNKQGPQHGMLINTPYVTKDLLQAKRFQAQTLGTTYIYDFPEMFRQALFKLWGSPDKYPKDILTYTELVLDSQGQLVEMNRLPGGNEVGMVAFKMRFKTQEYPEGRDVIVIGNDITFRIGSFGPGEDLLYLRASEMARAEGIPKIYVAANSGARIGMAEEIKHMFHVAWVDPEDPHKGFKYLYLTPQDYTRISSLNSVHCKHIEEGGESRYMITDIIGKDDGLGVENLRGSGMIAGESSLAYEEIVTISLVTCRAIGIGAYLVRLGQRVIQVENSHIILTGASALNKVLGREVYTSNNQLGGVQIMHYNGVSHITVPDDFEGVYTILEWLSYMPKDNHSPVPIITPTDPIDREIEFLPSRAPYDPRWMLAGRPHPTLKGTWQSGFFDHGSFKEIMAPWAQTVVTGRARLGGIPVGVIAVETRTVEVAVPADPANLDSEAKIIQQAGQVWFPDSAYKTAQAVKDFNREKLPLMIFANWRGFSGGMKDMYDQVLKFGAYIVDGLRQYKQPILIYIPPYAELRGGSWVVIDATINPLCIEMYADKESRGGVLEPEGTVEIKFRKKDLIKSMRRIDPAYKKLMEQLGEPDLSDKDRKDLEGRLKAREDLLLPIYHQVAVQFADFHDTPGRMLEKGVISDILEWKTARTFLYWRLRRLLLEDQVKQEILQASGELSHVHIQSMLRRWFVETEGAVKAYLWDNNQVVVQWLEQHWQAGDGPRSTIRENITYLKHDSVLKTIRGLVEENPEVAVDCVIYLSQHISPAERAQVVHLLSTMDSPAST
experiment_summary: Measurement of inhibitory activity on human ACC2 (MALDI-TOF MS, acetyl CoA to malonyl CoA conversion)
Type: biochemical
test_parameters: Tables 155-159
One number for each entry, as −log10 of the molar value.

Would you please look over these solved cases?
CC(=O)N[C@@H](C)CO[C@H]1C[C@H](COc2ncnc(NCc3cccc(C(F)(F)F)c3)c2Cl)C1 [Compound I-342]
6.97
CC(=O)N[C@@H](C)CO[C@H]1C[C@H](COc2ccc3nc(OCCC(C)C)n(C)c3n2)C1 [Compound I-482]
7.06
CC(=O)N[C@@H](C)CO[C@H]1C[C@H](COc2ncnc(OCc3ncc(Cl)s3)c2Cl)C1 [Compound I-439]
8.40
CC(=O)N[C@@H](C)CO[C@H]1CC[C@H](Oc2nc3cc(OC(C)C)ccc3n2C)CC1 [Compound I-566]
6.52

Value sought for every listed molecule: pIC50.
1. CCOc1cc(Cl)c2nc(O[C@H]3CC[C@H](OC[C@H](C)NC(C)=O)CC3)n(C)c2c1 [Compound I-692]
2. CC(=O)N[C@@H](C)CO[C@H]1C[C@H](COc2ccc3nc(N4CC(F)(F)C(F)(F)C4)sc3n2)C1 [Compound I-254]

A:
1: 7.47; 2: 7.70

Reference for the values: patent US10150728B2
